The reported numbers originate from ChEMBL document CHEMBL5303304.

Tested on: HEK-293T
Test: Incucyte cell viability with HEK293T; note: unitless GR value; below 1 slowed growth and below 0 cell loss
Assay type: toxicity, cell-based
Settings: human, 24 h, 10 µM, compound concentration 10 uM, replicate number 2
measured_attribute: Growth Rate

{"columns": ["molecule", "reading"],
 "data": [
  ["O=C(O)C[C@H]1CCn2c1c(Sc1ccc(Cl)cc1)c1ccc(F)cc12", 0.78],
  ["CC[C@H](Nc1c(C#N)c(-c2ccc(-c3cccc(C)c3F)cc2)nc2cnccc12)C(=O)O", 0.98],
  ["CCc1ccccc1C(=O)Nc1n[nH]c2c(C)c(F)c(C3C(C#N)=C(C)N(C)C(C)=C3C#N)cc12", 0.71],
  ["CCc1nc(C2CCC2)n2nc(-c3ccccc3)[nH]c(=O)c12", 0.91],
  ["CC#CC(=O)N1CCN(c2nc(-c3ccc(Oc4ccccc4)cc3)c(C(N)=O)s2)CC1", 0.64],
  ["C[C@H](CCC(=O)[O-])[C@H]1CC[C@H]2[C@@H]3[C@@H](O)C[C@@H]4C[C@H](O)CC[C@]4(C)[C@H]3CC[C@]12C.[Na+]", 1],
  ["Cc1ccc(C)c(OCCCC(C)(C)C(=O)O[C@@H]2O[C@H](C(=O)O)[C@@H](O)[C@H](O)[C@H]2O)c1", 0.91],
  ["CCN(CC)C(=O)C1CN2CCc3cc(OC)c(OC)cc3C2CC1OC(C)=O (stereo not drawn) [BENZQUINAMIDE]", 0.87]
]}
